So I've got pIC50 readings for Bifunctional dihydrofolate reductase-thymidylate synthase (Toxoplasma gondii), take a look.
pIC50: −log10 of the molar value.

{"columns": ["compound", "pIC50"],
 "data": [
  ["Nc1nc(N)c2c(n1)CCC(Cc1cccs1)C2 (centres undefined)", 7.21],
  ["COc1cc(CC2CCc3nc(N)nc(N)c3C2)cc(OC)c1OC (centres undefined)", 7.62],
  ["CC(C)(C)C1CCc2nc(N)nc(N)c2C1 (centres undefined)", 7.74],
  ["Nc1nc(N)c2c(n1)CCC(Cc1ccc(Cl)c(Cl)c1)C2 (centres undefined)", 5.59]
]}
